Cited source: the SangsterLogP compilation

# protocolNotes: method code SF-AS, from PMID: 1705424
# testContext: pH 7.4
assayEndpoint: logD
Give the figure only, with no unit attached.

Give a short answer stating reported logD for `CC(C)Cn1cnc2c1c(=O)n(C)c(=O)n2C` . 1.28

---

assayEndpoint: logP
Give the figure only, with no unit attached.

Give a short answer stating reported logP for `CC1(C)CC(C(=O)O)CC(C)(C)N1O` . 1.25

---

# protocolNotes: method code SF-AS, from DOI: 10.1128/jb.153.1.232-240.1983, PMID: 6294048
# testContext: pH 3.0
assayEndpoint: logD

Give a short answer stating reported logD for CC(=O)OCC1=C(C(=O)O)N2C(=O)C(NC(=O)Cc3cc4ccccc4s3)C2SC1 (stereo unspecified) . 1.68
